# ASSAY TEXT: Particle size, PdI and zeta potential of mRNA-encapsulating LNPs by dynamic light scattering (Experimental Example 2)
# Format: physicochemical
# STUDY CONDITIONS: mRNA-encapsulating LNP containing the cationic lipid, dispersion in PBS, dynamic light scattering (Table 5-3)
QUANTITY KIND: particle size (nm)

COMPOUND | MEASURED VALUE
CCCCCCCC/C=C\CCCCCCCC(=O)Oc1ccc(CC(=O)OCCC2CCN(CCSSCCN3CCC(CCOC(=O)Cc4ccc(OC(=O)CCCCCCCCCCC(CCCCCC)OC(=O)CCCCCCC)cc4)CC3)CC2)cc1 (stereo not shown) | 83.1
CCCCCCCC/C=C\CCCCCCCC(=O)Oc1ccc(CC(=O)OCCC2CCN(CCSSCCN3CCC(CCOC(=O)Cc4ccc(OC(=O)CCCC(=O)OC(CC(=O)OCCCC)(CC(=O)OCCCC)CC(=O)OCCCC)cc4)CC3)CC2)cc1 | 96.6
CCCCCCCC/C=C\CCCCCCCC(=O)Oc1ccc(CC(=O)OCCC2CCN(CCSSCCN3CCC(CCOC(=O)Cc4ccc(OC(=O)CCCCCCC/C=C\CC(CCCCCC)OC(=O)C(CC)CCCC)cc4)CC3)CC2)cc1 (stereo not shown) | 89.3
CCCCCCC(C/C=C\CCCCCCCC(=O)Oc1ccc(CC(=O)OCCC2CCN(CCSSCCN3CCC(CCOC(=O)Cc4ccc(OC(=O)CCCCCCC/C=C\CC(CCCCCC)OC(=O)c5ccc(OCC)c(OCC)c5)cc4)CC3)CC2)cc1)OC(=O)c1ccc(OCC)c(OCC)c1 (stereo not shown) | 99.5

* * *

# ASSAY TEXT: Particle size, PdI and zeta potential of mRNA-encapsulating LNPs by dynamic light scattering (Experimental Example 2)
# Assay type: physicochemical
# STUDY CONDITIONS: mRNA-encapsulating LNP containing the cationic lipid, dispersion in PBS (Table 5-3)
QUANTITY KIND: zeta potential (mV)

COMPOUND | MEASURED VALUE
CCCCCCCC/C=C\CCCCCCCC(=O)Oc1ccc(CC(=O)OCCC2CCN(CCSSCCN3CCC(CCOC(=O)Cc4ccc(OC(=O)CCCCCCC/C=C\CC(CCCCCC)OC(=O)C(CC)CCCC)cc4)CC3)CC2)cc1 (stereo not drawn) | -2.5 mV
CCCCCCC(C/C=C\CCCCCCCC(=O)Oc1ccc(CC(=O)OCCC2CCN(CCSSCCN3CCC(CCOC(=O)Cc4ccc(OC(=O)CCCCCCC/C=C\CC(CCCCCC)OC(=O)c5ccc(OCC)c(OCC)c5)cc4)CC3)CC2)cc1)OC(=O)c1ccc(OCC)c(OCC)c1 (stereo not drawn) | -4.4 mV
CCCCCCCC/C=C\CCCCCCCC(=O)Oc1ccc(CC(=O)OCCC2CCN(CCSSCCN3CCC(CCOC(=O)Cc4ccc(OC(=O)CCCCCCCCCCC(CCCCCC)OC(=O)CCCCCCC)cc4)CC3)CC2)cc1 (stereo not drawn) | -2.39 mV

* * *

# ASSAY TEXT: Particle size, PdI and zeta potential of mRNA-encapsulating LNPs by dynamic light scattering (Experimental Example 2)
# Assay type: physicochemical
# STUDY CONDITIONS: mRNA-encapsulating LNP, cationic lipid:DOPC:Chol = 50:10:40 (molar ratio) + DMG-PEG2k about 1 mol; Polydispersity Index, dynamic light scattering

STRUCTURE STRING | PdI
CCCCCCCC/C=C\CCCCCCCC(=O)Oc1ccc(CC(=O)OCCC2CCN(CCSSCCN3CCC(CCOC(=O)Cc4ccc(OC(=O)CCCC(=O)OC[C@H](COC(=O)CCCCCC)OC(=O)CCCCCC)cc4)CC3)CC2)cc1 | 0.073
CCCCCCCC/C=C\CCCCCCCC(=O)Oc1ccc(CC(=O)OCCC2CCN(CCSSCCN3CCC(CCOC(=O)Cc4ccc(OC(=O)CCCC(=O)OC[C@H](COC(=O)CCCCC)OC(=O)CCCCC)cc4)CC3)CC2)cc1 | 0.073
CCCCCC/C=C\COC(=O)CCCC(=O)Oc1ccc(CC(=O)OCCC2CCN(CCSSCCN3CCC(CCOC(=O)Cc4ccc(OC(=O)CCCCCCC/C=C\CCCCCCCC)cc4)CC3)CC2)cc1 | 0.072
